These data points were gathered from patent US7704995B2.

- MEASUREMENT TARGET: Chk1 (Homo sapiens)
- Construct: purchased Upstate Biotechnology
- METHOD: Chk1 kinase assay: incorporation of γ-33P ATP into immobilized myelin basic protein
- Assay type: biochemical
- MEASUREMENT CONDITIONS: Table 11; Chk1 only; read-out: Chk1 IC50
METRIC: IC50

Consider the worked cases shown below.
- MOLECULE: "CN(C)CCNC(=O)c1nc(-c2cccc(CN[C@H]3CCc4ccccc43)c2)cnc1N"
  IC50: "50 to 1000 nM"
- MOLECULE: "COc1ccc(CNC(=O)c2cccc(-c3cnc(N)c(C(=O)N[C@H]4CCNC4)n3)c2)cc1"
  IC50: "50 to 1000 nM"
- MOLECULE: "C/C(=N\\Nc1ccc(Cl)cc1)c1nc(-c2cccc(C(=O)NCc3ccccc3)c2)cnc1N"
  IC50: "≥ 10000 nM"
- MOLECULE: "C/C(=N\\Nc1nccc(C(F)(F)F)n1)c1nc(-c2cccc(C(=O)NCc3ccccc3)c2)cnc1N"
  IC50: "1000 to 10000 nM"
- MOLECULE: "COC(=O)[C@@H]1CCCN1C(=O)c1nc(-c2cccc(C(=O)NCc3ccccc3)c2)cnc1N"
  IC50: "≥ 10000 nM"
- MOLECULE: "CNC(=O)c1nc(-c2cccc(CNC3CCc4cc(-c5ccco5)ccc43)c2)cnc1N (centres unmarked)"
  IC50: "< 50 nM"
- MOLECULE: "Nc1ncc(-c2cccc(C(=O)NCc3c(F)cccc3Cl)c2)nc1C(=O)N[C@H]1CCNC1"
  IC50: "50 to 1000 nM"

Below: the item to evaluate.
### Prompt I'd like to know its IC50. The molecule in question is CNC(=O)c1nc(-c2cccc(CN[C@H]3c4ccccc4C[C@H]3O)c2)cnc1N
### Response < 50 nM

###

- MEASUREMENT TARGET: Flt1 (Homo sapiens)
- Sequence (P17948 27-1338): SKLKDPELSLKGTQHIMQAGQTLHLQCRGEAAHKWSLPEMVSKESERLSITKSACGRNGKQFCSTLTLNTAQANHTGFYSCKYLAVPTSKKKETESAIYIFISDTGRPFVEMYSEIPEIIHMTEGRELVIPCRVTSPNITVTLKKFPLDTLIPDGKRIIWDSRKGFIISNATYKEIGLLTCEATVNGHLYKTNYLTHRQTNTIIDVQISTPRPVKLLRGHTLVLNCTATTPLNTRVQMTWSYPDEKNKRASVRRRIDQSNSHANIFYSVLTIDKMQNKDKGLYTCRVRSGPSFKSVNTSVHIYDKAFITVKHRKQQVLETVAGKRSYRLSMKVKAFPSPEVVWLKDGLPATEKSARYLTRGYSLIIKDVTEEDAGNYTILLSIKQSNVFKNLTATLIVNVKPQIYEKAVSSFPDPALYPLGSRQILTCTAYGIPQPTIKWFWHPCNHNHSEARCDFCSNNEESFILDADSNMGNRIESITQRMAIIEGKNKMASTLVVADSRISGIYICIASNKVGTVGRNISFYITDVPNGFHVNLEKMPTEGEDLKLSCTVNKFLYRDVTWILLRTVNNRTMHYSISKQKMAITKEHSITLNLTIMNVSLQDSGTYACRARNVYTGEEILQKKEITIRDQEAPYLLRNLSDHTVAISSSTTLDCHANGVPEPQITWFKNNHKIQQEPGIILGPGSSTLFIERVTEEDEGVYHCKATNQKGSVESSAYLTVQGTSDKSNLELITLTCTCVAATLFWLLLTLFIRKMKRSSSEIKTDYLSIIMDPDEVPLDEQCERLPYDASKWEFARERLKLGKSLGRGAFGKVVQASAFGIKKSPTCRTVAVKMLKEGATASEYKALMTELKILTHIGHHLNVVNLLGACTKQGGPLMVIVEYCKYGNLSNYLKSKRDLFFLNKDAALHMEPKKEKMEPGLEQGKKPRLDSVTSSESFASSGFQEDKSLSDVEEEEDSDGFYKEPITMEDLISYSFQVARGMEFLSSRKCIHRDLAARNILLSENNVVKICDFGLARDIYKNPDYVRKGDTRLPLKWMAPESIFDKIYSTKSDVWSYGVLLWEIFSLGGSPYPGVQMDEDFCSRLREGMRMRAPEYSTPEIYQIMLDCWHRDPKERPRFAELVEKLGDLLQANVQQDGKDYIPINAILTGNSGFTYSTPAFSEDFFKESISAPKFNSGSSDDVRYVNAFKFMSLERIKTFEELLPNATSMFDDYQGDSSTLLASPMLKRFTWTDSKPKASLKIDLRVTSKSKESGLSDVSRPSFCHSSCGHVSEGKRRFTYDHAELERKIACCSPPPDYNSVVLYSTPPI
METRIC: IC50

### Prompt Lab note: need IC50 for NC(=O)c1nc(-c2cccc3ccccc23)cnc1N on Flt1 (Homo sapiens), anyone have it?
### Response 50 to 1000 nM

###

- MEASUREMENT TARGET: IRK (Homo sapiens, UniProt P06213)
- Sequence (P06213 28-1382): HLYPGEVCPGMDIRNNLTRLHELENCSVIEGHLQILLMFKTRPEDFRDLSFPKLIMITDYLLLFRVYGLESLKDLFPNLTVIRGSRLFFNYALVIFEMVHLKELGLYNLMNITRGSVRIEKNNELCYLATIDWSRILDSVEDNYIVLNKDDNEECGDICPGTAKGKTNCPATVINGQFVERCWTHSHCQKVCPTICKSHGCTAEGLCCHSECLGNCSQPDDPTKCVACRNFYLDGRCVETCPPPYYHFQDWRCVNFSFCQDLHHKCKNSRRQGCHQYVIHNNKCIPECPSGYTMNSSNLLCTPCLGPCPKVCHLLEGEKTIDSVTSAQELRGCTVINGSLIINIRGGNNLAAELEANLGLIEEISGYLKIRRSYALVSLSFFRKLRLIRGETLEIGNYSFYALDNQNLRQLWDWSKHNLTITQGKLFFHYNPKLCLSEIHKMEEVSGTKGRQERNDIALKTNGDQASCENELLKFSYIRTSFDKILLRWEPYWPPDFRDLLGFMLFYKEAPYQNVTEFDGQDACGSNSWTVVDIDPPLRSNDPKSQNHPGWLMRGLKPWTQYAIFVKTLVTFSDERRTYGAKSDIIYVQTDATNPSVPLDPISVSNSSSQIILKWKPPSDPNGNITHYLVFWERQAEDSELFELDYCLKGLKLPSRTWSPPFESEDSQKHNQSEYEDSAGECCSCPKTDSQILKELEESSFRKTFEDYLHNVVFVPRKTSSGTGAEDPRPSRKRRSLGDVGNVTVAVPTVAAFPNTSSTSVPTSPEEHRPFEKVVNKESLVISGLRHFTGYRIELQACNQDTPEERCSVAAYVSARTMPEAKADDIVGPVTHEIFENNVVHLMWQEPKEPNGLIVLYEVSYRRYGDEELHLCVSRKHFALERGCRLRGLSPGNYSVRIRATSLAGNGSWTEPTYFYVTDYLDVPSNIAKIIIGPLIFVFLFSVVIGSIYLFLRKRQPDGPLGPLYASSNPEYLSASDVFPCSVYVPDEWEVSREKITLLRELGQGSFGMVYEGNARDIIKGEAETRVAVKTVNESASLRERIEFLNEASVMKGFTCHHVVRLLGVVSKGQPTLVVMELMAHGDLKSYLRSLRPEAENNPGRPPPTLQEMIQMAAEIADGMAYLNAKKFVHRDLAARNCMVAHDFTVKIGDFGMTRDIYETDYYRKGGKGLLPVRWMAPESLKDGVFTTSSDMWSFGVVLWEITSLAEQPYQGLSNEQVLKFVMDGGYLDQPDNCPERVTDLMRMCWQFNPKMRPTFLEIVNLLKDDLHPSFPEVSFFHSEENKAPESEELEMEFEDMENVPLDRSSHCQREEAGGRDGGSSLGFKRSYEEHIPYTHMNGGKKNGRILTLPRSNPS
METRIC: IC50

### Prompt I'd like to know its IC50. The molecule in question is NC(=O)c1nc(-c2cccc3ccccc23)cnc1N
### Response ≥ 10 µM

###

- MEASUREMENT TARGET: Chk1 (Homo sapiens, UniProt O14757)
- Construct: purchased Upstate Biotechnology
- Sequence (O14757 1-476): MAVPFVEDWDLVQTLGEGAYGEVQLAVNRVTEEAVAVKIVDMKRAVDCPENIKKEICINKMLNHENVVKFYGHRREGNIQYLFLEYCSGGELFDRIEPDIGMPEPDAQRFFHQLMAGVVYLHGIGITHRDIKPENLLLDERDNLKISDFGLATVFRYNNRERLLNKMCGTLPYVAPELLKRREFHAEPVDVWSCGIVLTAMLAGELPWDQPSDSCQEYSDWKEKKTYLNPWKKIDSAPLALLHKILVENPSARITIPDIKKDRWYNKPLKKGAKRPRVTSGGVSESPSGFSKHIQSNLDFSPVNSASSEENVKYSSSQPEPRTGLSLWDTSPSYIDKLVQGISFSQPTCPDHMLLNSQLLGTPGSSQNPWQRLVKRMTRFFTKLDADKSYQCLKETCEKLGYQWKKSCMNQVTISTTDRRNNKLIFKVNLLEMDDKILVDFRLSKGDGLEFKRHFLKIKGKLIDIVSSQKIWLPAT
- METHOD: Chk1 kinase assay: incorporation of γ-33P ATP into immobilized myelin basic protein
- Type: biochemical
- MEASUREMENT CONDITIONS: read-out: Chk1 IC50
- Description: Chk1 and Chk2 assays were performed by measuring incorporation of γ-^33P ATP into immobilized myelin basic protein (MBP). […] Each data point was measured in duplicate, and at least two duplicate assays were performed for each individual compound determination. […] The above assay procedure can be used to determine the IC50 for inhibition and/or the inhibition constant Ki. […] The Ki for a compound may be determined from the IC50 based on three assumptions. […]
# IC50 per entry

- STRUCTURE SMILES STRING: "CNC(=O)c1nc(-c2cccc(C(=O)NCc3cccc(Br)c3)c2)cnc1N"
  IC50: "50 to 1000 nM"
- STRUCTURE SMILES STRING: "CNC(=O)c1nc(-c2cccc(CNC(=O)c3ccccc3)c2)cnc1N"
  IC50: "50 to 1000 nM"
- STRUCTURE SMILES STRING: "CNC(=O)c1nc(-c2cccc(CN[C@@H]3CCc4ccccc43)c2)cnc1N"
  IC50: "50 to 1000 nM"
- STRUCTURE SMILES STRING: "CNC(=O)c1nc(-c2cccc(CNC(=O)C3CCN(c4ncc(C(F)(F)F)cn4)CC3)c2)cnc1N"
  IC50: "50 to 1000 nM"
- STRUCTURE SMILES STRING: "CNC(=O)c1nc(-c2cccc(-c3noc(-c4ccccc4)n3)c2)cnc1N"
  IC50: "1000 to 10000 nM"

### Prompt I'd like to know its IC50. The compound in question is CNC(=O)c1nc(-c2cccc(C(=O)NCc3ccc(F)c(F)c3)c2)cnc1N
### Response 50 to 1000 nM

### Prompt I'd like to know its IC50. The compound in question is CNC(=O)c1nc(-c2cccc(OCCN3CCc4ccccc4C3)c2)cnc1N
### Response 50 to 1000 nM

### Prompt I'd like to know its IC50. The compound in question is CNC(=O)c1nc(-c2cccc(C(=O)NCc3cccc(Cl)c3F)c2)cnc1N
### Response 50 to 1000 nM

### Prompt I'd like to know its IC50. The compound in question is CNC(=O)c1nc(-c2cccc(C(=O)NCc3ccc(F)c(Br)c3)c2)cnc1N
### Response 50 to 1000 nM

### Prompt I'd like to know its IC50. The compound in question is CNC(=O)c1nc(-c2cccc(C(=O)NCc3ccc(F)c(F)c3F)c2)cnc1N
### Response 50 to 1000 nM
